# credit: paper PMC9352680

- subjectOfTest: T1, PUF4 RNA-binding domain (Saccharomyces cerevisiae, UniProt P25339 537-888)
- T1 sequence: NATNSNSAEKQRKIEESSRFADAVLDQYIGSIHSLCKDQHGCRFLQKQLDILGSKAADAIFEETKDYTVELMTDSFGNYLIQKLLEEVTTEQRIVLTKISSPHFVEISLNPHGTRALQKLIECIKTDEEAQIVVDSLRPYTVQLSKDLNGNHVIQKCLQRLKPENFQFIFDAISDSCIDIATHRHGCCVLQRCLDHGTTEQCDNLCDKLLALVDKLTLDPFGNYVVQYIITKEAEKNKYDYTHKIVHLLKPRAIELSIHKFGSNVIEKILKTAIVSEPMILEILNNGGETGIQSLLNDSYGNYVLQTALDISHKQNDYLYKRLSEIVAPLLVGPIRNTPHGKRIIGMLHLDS
- experimentSummary: Mg; RNA-MaP; 20 mM Na-HEPES pH 7.4, 30 mM KOAc, 0.75 mM MgCl2, 0.1% Tween-20, 5% glycerol, 0.1 mg/mL BSA, 2 mM DTT; 25 C; 0.0125-409.6 nM protein
- conditionParameters: tags: N-His6-TEV cleaved; C-SNAP kept, Cy3B-labelled; label: tethered on chip by stalled RNA polymerase
Just a reminder that ties go to NOT MET: only Kd strictly below 20 nM counts as MET.

Q: Given Ic_S4_P4E.1_K4.1_C4.1_H4.1_A4.1_[T7G]_F4.1_T4.1 (ssRNA) RNA: UUUGACAACUGAUCGUUCUUUCUUGUAUAGUAUUCUUUCUCGAUCAGUUGUCUUU , is recorded Kd strictly lower than 20 nM?
Result: MET

Q: Given UCUCUUUGUAUAUUACCUCUCUCUU (ssRNA) [Ie_S1_P4E.1_K4.1_C4.1_H4.1_A4.1_F4.1_[+9CCTC]_T4.1] , is recorded Kd strictly lower than 20 nM?
Result: MET

Q: Given UCUCUUUGUGUAUUAUUAGUUCUCUU (ssRNA) [Id_ii_S1_P5E.2_K5.1_C5.2_[C-2T]_[T-1G]_H5.1_A5.1_F5.1_T5.2_[T11G]_[A12T]] , is recorded Kd strictly lower than 20 nM?
Result: MET

Q: Given UCUCUUAAUGUAUAUUACCUCUCUU (ssRNA) [Id_ii_S1_P4E.2_K4.1_C4.2_[C-2A]_[T-1A]_H4.1_A4.1_F4.1_T4.2_[G10C]_[T11C]] , is recorded Kd strictly lower than 20 nM?
Result: MET

Q: Given UCUCUUUGUAGCCCAAUCUCUU (ssRNA) [Ic_S1_P5E.1_K5.1_C5.1_H5.1_A5.1_[T5G]_[T6C]_[A7C]_F5.1_[T8C]_[T9A]_T5.1] , is recorded Kd strictly lower than 20 nM?
Result: NOT MET

Q: Given Ie_S4_P4E.1_K4.1_C4.1_H4.1_A4.1_F4.1_[+9TC]_T4.1 (ssRNA) RNA: UUUGACAACUGAUCGUUCUUUCUUGUAUAUUAUCUUCUUUCUCGAUCAGUUGUCUUU , is recorded Kd strictly lower than 20 nM?
Result: MET

Q: Given Id_ii_S2_P4E.2_K4.1_C4.2_[T-1C]_H4.1_A4.1_F4.1_T4.2_[G10A]_[T11A] (ssRNA) RNA: UUUGAUUAAUAUGAUAUCGUUCUUUCUCCUGUAUAUUAAAUUCUUUCUCGAUAUCAUAUUAAUCUUU , is recorded Kd strictly lower than 20 nM?
Result: MET

Q: Given UCUCUUCUUGUAUUAUUAAAUCUCUU (ssRNA) [Id_ii_S1_P5E.2_K5.1_C5.2_H5.1_A5.1_F5.1_T5.2_[T11A]] , is recorded Kd strictly lower than 20 nM?
Result: MET

Q: Given UCUCUUUGUAUUUUCGUCUCUU (ssRNA) [Ic_S1_P5E.1_K5.1_C5.1_H5.1_A5.1_[A7T]_F5.1_[T9C]_[A10G]_T5.1] , is recorded Kd strictly lower than 20 nM?
Result: NOT MET

Q: Given Ib_S2_P4E.1_K4.1_C4.1_H4.1_[T3C]_[A4T]_A4.1_F4.1_T4.1 (ssRNA) RNA: UUUGAUUAAUAUGAUAUCGUUCUUUCUUGCUUAUUAUUCUUUCUCGAUAUCAUAUUAAUCUUU , is recorded Kd strictly lower than 20 nM?
Result: NOT MET

Q: Given Ic_S2_P4E.1_K4.1_C4.1_H4.1_A4.1_[T5A]_[A6C]_[T7A]_F4.1_[T8G]_[A9C]_T4.1 (ssRNA) RNA: UUUGAUUAAUAUGAUAUCGUUCUUUCUUGUAACAGCUUCUUUCUCGAUAUCAUAUUAAUCUUU , is recorded Kd strictly lower than 20 nM?
Result: NOT MET

Q: Given ACAAACUUUAUUUAACAAAC (ssRNA) [Ib_S3_P3E.1_K3.1_C3.1_H3.1_[G2T]_A3.1_[A6T]_F3.1_T3.1] , is recorded Kd strictly lower than 20 nM?
Result: NOT MET

Q: Given Id_ii_S2_P5E.4_K5.3_C5.2_H5.3_A5.1_F5.1_T5.2_[T11C] (ssRNA) RNA: UUUGAUUAAUAUGAUAUCGUUCUUUCUCUACACUUAUUACAUUCUUUCUCGAUAUCAUAUUAAUCUUU , is recorded Kd strictly lower than 20 nM?
Result: NOT MET

Q: Given Ie_S2_P5E.1_K5.1_C5.1_H5.1_A5.1_F5.1_[+9CTCTC]_T5.1 (ssRNA) RNA: UUUGAUUAAUAUGAUAUCGUUCUUUCUUGUAUUAUUCUCUCAUUCUUUCUCGAUAUCAUAUUAAUCUUU , is recorded Kd strictly lower than 20 nM?
Result: MET

Q: Given ACAAACCUUAUAUAUAUAACAAAC (ssRNA) [Id_ii_S3_P3E.3_K3.2_C3.2_H3.2_A3.1_F3.1_T3.2] , is recorded Kd strictly lower than 20 nM?
Result: NOT MET

Q: Given UCUCUUUGUGUAUAUUAAAUCUCUU (ssRNA) [Id_ii_S1_P4E.2_K4.1_C4.2_[C-2T]_[T-1G]_H4.1_A4.1_F4.1_T4.2_[G10A]_[T11A]] , is recorded Kd strictly lower than 20 nM?
Result: MET

Q: Given UCUCUUUGUACGCGAUCUCUU (ssRNA) [Ic_S1_P4E.1_K4.1_C4.1_H4.1_A4.1_[T5C]_[A6G]_[T7C]_F4.1_[T8G]_T4.1] , is recorded Kd strictly lower than 20 nM?
Result: NOT MET

Q: Given Ic_S2_P4E.1_K4.1_C4.1_H4.1_A4.1_[A6T]_[T7C]_F4.1_[T8A]_[A9T]_T4.1 (ssRNA) RNA: UUUGAUUAAUAUGAUAUCGUUCUUUCUUGUAUUCAUUUCUUUCUCGAUAUCAUAUUAAUCUUU , is recorded Kd strictly lower than 20 nM?
Result: NOT MET

Q: Given UCUCUUCUCUCUCUGUAUAUAUAUCUCUU (ssRNA) [Ie_S1_P3E.2_K3.1_C3.2_[+-1CTCTC]_H3.1_A3.1_F3.1_T3.2] , is recorded Kd strictly lower than 20 nM?
Result: MET

Q: Given Ic_S2_P4E.1_K4.1_C4.1_H4.1_A4.1_[A6C]_[T7C]_F4.1_[T8A]_T4.1 (ssRNA) RNA: UUUGAUUAAUAUGAUAUCGUUCUUUCUUGUAUCCAAUUCUUUCUCGAUAUCAUAUUAAUCUUU , is recorded Kd strictly lower than 20 nM?
Result: NOT MET

Q: Given Ie_S2_P3E.2_K3.1_C3.2_H3.1_[+3CTC]_A3.1_F3.1_T3.2 (ssRNA) RNA: UUUGAUUAAUAUGAUAUCGUUCUUUCUCUUGUCUCAUAUAUAUUCUUUCUCGAUAUCAUAUUAAUCUUU , is recorded Kd strictly lower than 20 nM?
Result: MET

Q: Given Ie_S4_P5E.1_K5.1_C5.1_H5.1_A5.1_[+6CTCTC]_F5.1_T5.1 (ssRNA) RNA: UUUGACAACUGAUCGUUCUUUCUUGUAUUCUCUCAUUAUUCUUUCUCGAUCAGUUGUCUUU , is recorded Kd strictly lower than 20 nM?
Result: NOT MET

Q: Given UCUCUUUGUAUCCGUUCUCUU (ssRNA) [Ic_S1_P4E.1_K4.1_C4.1_H4.1_A4.1_[A6C]_[T7C]_F4.1_[T8G]_[A9T]_T4.1] , is recorded Kd strictly lower than 20 nM?
Result: NOT MET
